test system: Escherichia coli TOP10; test: shrunken log2 fold change of peptide-encoding DNA abundance (4.5 h post-induction vs induction); higher = less antimicrobial activity (less host growth inhibition); settings: time post-induction: 4.5 h; library: site-saturation at positions 5, 18, 19, 20;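 also: peptides expressed intracellularly from a pBAD plasmid library in pooled LB shake-flask culture, induced with 0.3% L-arabinose, DNA abundance read by NGS, three biological replicates, DESeq2 with apeglm shrinkage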
property-label: shrunken log2 fold change
One number for each entry.

[[record]]
polymer_sequence = "RRIRKRPPRLPRPRPRPMHRPRP"
quantitative_readout = 0.0595


Dear reader, for each entry below, please note its shrunken log2 fold change.
1. RRIRIRPPRLPRPRPRPIPYPRP
2. RRIRERPPRLPRPRPRPLNYPRP
3. RRIRDRPPRLPRPRPRPCRLPRP
4. RRIRCRPPRLPRPRPRPNWMPRP
5. RRIRERPPRLPRPRPRPKCDPRP
6. RRIRDRPPRLPRPRPRPLHRPRP

Response line:
[-0.295, -0.176, 0.00469, -0.805, 0.175, -0.375]

Dear reader, for each entry below, please note its shrunken log2 fold change.
1. RRIRWRPPRLPRPRPRPMQYPRP
2. RRIRERPPRLPRPRPRPCRNPRP
3. RRIRWRPPRLPRPRPRPQQFPRP
4. RRIRSRPPRLPRPRPRPAFQPRP
5. RRIRSRPPRLPRPRPRPGKRPRP

Response line:
0.0439
-0.269
-0.262
-0.0696
-0.0142

Dear reader, for each entry below, please note its shrunken log2 fold change.
1. RRIRCRPPRLPRPRPRPCMYPRP
2. RRIRQRPPRLPRPRPRPPIQPRP
3. RRIRHRPPRLPRPRPRPRHSPRP

Response line:
-0.0898
-0.164
-0.173

Where do these numbers come from? They come from the supplement of paper PMC9112550.
